Reported Ki values for a set of compounds
assay: Binding affinity to SHV-1 (unknown origin) assessed as inhibition constant; parameters: species or system Homo sapiens
Expressed in nM, but write only the number.

O=C(Cc1cccs1)N[C@@H](Cn1cc(C(=O)O)nn1)B(O)O : 130

Turning to the following compound.
Requested field: Ki. Item: O=C(Cc1cccs1)N[C@H](B(O)O)c1cccc(C(=O)O)c1
400

* * *

experiment: Inhibition of Escherichia coli beta-lactamase CTX-M-15 using nitrocefin as substrate measured after 20 mins
Assay metric: IC50 (nM)
Dear colleague, please return just the value in nM, with no unit written.

Query: IC50; subject: NS(=O)(=O)C1CC[C@@H]2CN1C(=O)N2OS(=O)(=O)O (stereo partly specified)
140
